Values from PubChem BioAssay

Experiment: inhibitors of TNFa-induced NFkB p65 translocation, primary screen, imaging, HUVEC, MLSMR starter and 10KST1 sets (AID 438);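 note: compound added about 3h40 before a 20 min TNFalpha stimulation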
Conditions: HUVEC TNFa-induced p65 nuclear translocation; measured here: nuclei count (cytotoxicity indicator), at 2.08 µM
// FALSE strictly below 400 in cell count; TRUE otherwise

{"columns": ["Compound", "Class name"],
 "data": [
  ["Cc1cc(Oc2ccccc2)nc(-c2ccccc2)n1", "TRUE"],
  ["CCN1CCN(C(=O)Cn2ncc3ccsc3c2=O)CC1", "TRUE"],
  ["c1ccc(CC2CCN(c3nc4ccccc4n4nnnc34)CC2)cc1", "FALSE"],
  ["CC(CN1CCCCC1)OC(=O)c1ccc(Cl)cc1Cl (stereo unspecified)", "TRUE"],
  ["COc1cccc(N2CCN(CC(=O)Nc3nnc(-c4ccccc4)s3)CC2)c1", "TRUE"],
  ["COc1cccc2sc(NC(=O)c3ccc(S(=O)(=O)N4CCOCC4)cc3)nc12", "FALSE"]
]}
